Assay: Toxicokinetic evaluation (plasma) after subcutaneous injection in cynomolgus monkeys
Format: in vivo
Conditions: both sexes, cynomolgus monkey, plasma; range across the 30 to 120 mg/kg groups, males and females combined, SC; read-out: AUC0-72
Starred links: 1 amine or outer side, 2 acyl side, 3 side chain; linkers in the order of their positions; H or OH if unused. Positions of bridges follow the written chain, without caps; N, C: chain ends. Non-standard residues stand in square brackets, D forms with d. Residues, ends and D or L forms follow the SMILES beside them. *: point of attachment. Orn(4R-OH,5R-OCH2CH2NMe3+) = C[N+](C)(C)CCO[C@@H](N[*:3])[C@H](O)C[C@H](N[*:1])C(=O)[*:2]; pTerphenylCO(4''-OnC5H11) = CCCCCOc1ccc(-c2ccc(-c3ccc(C(=O)*)cc3)cc2)cc1; hTyr(3S-OH,4S-OH) = N[C@H](C(=O)O)[C@H](O)[C@@H](O)c1ccc(O)cc1; Pro(3S-OH,4S-Me) = C[C@H]1CN[C@H](C(=O)O)[C@H]1O; Hyp = O=C(O)[C@@H]1C[C@@H](O)CN1
reportedProperty: AUC(0-t)

Complete the entry with AUC(0-t) for CCCCCOc1ccc(-c2ccc(-c3ccc(C(=O)N[C@H]4C[C@@H](O)[C@@H](OCC[N+](C)(C)C)NC(=O)[C@@H]5[C@@H](O)[C@@H](C)CN5C(=O)[C@H]([C@@H](C)O)NC(=O)[C@H]([C@H](O)[C@@H](O)c5ccc(O)cc5)NC(=O)[C@@H]5C[C@@H](O)CN5C(=O)[C@H]([C@@H](C)O)NC4=O)cc3)cc2)cc1 [CD101] ({pTerphenylCO(4''-OnC5H11)}-[Orn(4R-OH,5R-OCH2CH2NMe3+)]T[Hyp][hTyr(3S-OH,4S-OH)]T[Pro(3S-OH,4S-Me)]; lactam 1-C)
1360 to 4320 µg·h/mL
